Cited source: PubChem BioAssay (NCATS)

# study system: Androgen receptor (Homo sapiens)
# experimental protocol: qHTS assay for small molecule agonists of androgen receptor signaling (AID 588515); note: % is set by controls: 0 for no effect and ±100 for the full control effect
# experimental parameters: AR-UAS-bla HEK293, beta-lactamase ratio, agonist 16 h; hits give high values
Results filed as inconclusive are left out.
measure: activation (%)

1. CCC/C(=N\OCC)C1=C(O)CC(O)(CC(C)S(=O)(=O)CC)CC1=O (configuration not stated) ... -4
2. Cn1c(=O)[nH]c(=O)n(C2CCC(O)CC2)c1=O (configuration not stated) ... 1.63
3. CCCCCCCCCc1ccccc1 ... 1.05
4. CC(=O)Nc1ccc(N=Nc2cc(C)ccc2O)cc1 ... -4.42
5. COC(=O)c1cccc(C)c1S(=O)(=O)NC(=O)Nc1nc(OCC(F)(F)F)nc(N(C)C)n1 ... 3.18
6. CCCCCCc1ccc(N)cc1 ... -4.5
7. CC(=O)N(CCN(C(C)=O)C(C)=O)C(C)=O ... 11.2
8. CC(C)c1ccc2cc(C(C)C)ccc2c1 ... -3.98
9. Cc1ccc(N=Nc2c(O)ccc3ccccc23)c(C)c1 ... -2.14
10. CNc1nc(=O)n(C2CCCCC2)c(=O)n1C ... -4.83
11. O=C(O)CN(CCO)CCN(CC(=O)O)CC(=O)O ... 3.88
12. CC(Cl)(Cl)C(=O)OCCOc1cc(Cl)c(Cl)cc1Cl ... 2.7

----------
# study system: Cytochrome P450 3A4 (Homo sapiens)
# experimental protocol: qHTS Assay for Activators of Cytochrome P450 3A4 (AID 885); note: nearly all actives have a fitted effect of over 65% in size
# experimental parameters: recombinant CYP3A4, Luciferin-PPXE luminescence, 60 min; series mostly up to 57.1 µM
# Procedure: NIH Molecular Libraries Screening Centers Network [MLSCN] NIH Chemical Genomics Center [NCGC] The P450 gene superfamily is involved in the metabolism and clearance of xenobiotics. […] The luciferin is then measured by luminescence after the addition of a luciferase detection reagent. […] Inhibitors and some substrates limit the production of luciferin, and decrease measured luminescence; activators increase the production of luciferin and luminescence. […]
Calls of active or inactive are those of the source. Calls come from the whole dose curve; as a rule, active = well fitted activation curve with a large enough effect; inconclusive = small, poorly fitted or top-dose-only effect; inactive = no such curve, though single readings can be large or run the other way.
measure: activity change, positive = activation

1) COc1cccc([C@H](O)Cn2cc(-c3cccc(CON=C(C)C)c3)nn2)c1 ... -43.8% [at 11.4 µM] (inactive)
2) CCOC(c1cc(OC)cc([N+](=O)[O-])c1OC)C(C)C(OC)[C@@H](C)/C=C/CC(=O)OC (some centres not stated) ... -78.6% [at 11.4 µM] (inactive)
3) Cn1c(=O)c(C(=O)COC(=O)c2cc(-c3ccco3)nc3ccccc23)c(N)n(CC2CC2)c1=O ... inactive
4) COC(c1ccccc1)C(C)C(OC)C(C)C(OC)C(C)C(C)=O (configuration not stated) ... -36.1% [at 11.4 µM] (inactive)
5) C=CC[C@@H]1C=C[C@@H](O/N=C\c2ccc(C(=O)N3[C@H](c4ccc(C)cc4)[C@@H](C)CC[C@H]3C(=O)OC)cc2)[C@@H](CO)O1 ... -42.6% [at 11.4 µM] (inactive)
6) CCC/C=C/C1C(=O)C2OC2C2(OCC(CC)(CC)CO2)C1CO (configuration not stated) ... -53.3% [at 11.4 µM] (inactive)
7) CO[C@@H]1/C=C\CC(=O)N[C@@H](C)C(=O)OC[C@@H](OC)[C@H](C)/C=C\CC(=O)OC[C@H]1C ... -36.7% [at 11.4 µM] (inactive)
8) COc1ccccc1-c1oc2ccccc2c(=O)c1O ... inactive
9) Nc1nc2c(ncn2C2OC(COC(=O)c3ccccc3)C(OC(=O)c3ccccc3)C2OC(=O)c2ccccc2)c(=O)[nH]1 (configuration not stated) ... inactive
10) COC(=O)c1ccc(C(/C=C/[C@@H](C)C(=O)N(C)C)NC(=O)OCc2ccccc2)cc1 (some centres not stated) ... inactive
11) CCC1=C2CC[C@H]3C(=O)N(c4ccccc4)C(=O)[C@H]3[C@H]2[C@@]2(Cc3ccccc3)C(=NCC3CC3)OC(=O)N2C1=O ... inactive
12) CC(=O)N1[C@H](Cc2ccccc2)C=C[C@]1(C)C(=O)NCc1cc(F)cc(C(F)(F)F)c1 ... inactive
13) COC(=O)[C@@H]1CC[C@H](C)[C@@H](c2ccc(C)cc2)N1C(=O)c1ccc(/C=N\O[C@@H](C)CN2CCCCc3nc(C)c(C)cc32)cc1 ... -36.1% [at 11.4 µM] (inactive)
14) COC(=O)[C@@H]1CC[C@H](C)[C@@H](c2ccc(C)cc2)N1C(=O)c1ccc(/C=N\OC[C@@H](C)[C@H](OCc2ccccc2)C(C)C)cc1 ... -66.5% [at 11.4 µM] (inactive)
15) COc1ccc(-c2cc(=O)c3cc(OC)ccc3o2)cc1 ... inactive
16) COc1cc(OC)c2c(c1)OC(c1ccccc1)CC2=O (configuration not stated) ... inactive
17) CCCNC(=O)OC[C@@H]1O[C@H](CCO/N=C\[C@@H](C)[C@H](OCc2ccccc2)C(C)C)C=C[C@@H]1Oc1ccc(OC)cc1 ... -83.7% [at 11.4 µM] (inactive)
